# credit: paper PMC6010071

# Study target: recombinant human HSD1 (Homo sapiens)
# Construct: made in house; host or cells: Sf9 insect cells
# Sequence (P14061 1-328): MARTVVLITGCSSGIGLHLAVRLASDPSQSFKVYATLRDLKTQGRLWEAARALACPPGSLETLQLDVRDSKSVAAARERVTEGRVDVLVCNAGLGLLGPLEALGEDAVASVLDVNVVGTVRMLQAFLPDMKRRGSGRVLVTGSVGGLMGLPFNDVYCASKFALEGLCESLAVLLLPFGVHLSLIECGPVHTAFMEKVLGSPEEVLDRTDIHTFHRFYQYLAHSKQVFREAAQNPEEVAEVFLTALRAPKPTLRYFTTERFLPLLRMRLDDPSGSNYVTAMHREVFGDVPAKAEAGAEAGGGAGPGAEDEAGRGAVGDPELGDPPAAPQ
# Test details: HSD1 inhibition, HPLC assay of [3H]-E1 to [3H]-E2 conversion
# Format: biochemical
# Condition: 1 µM; average of three measurements, except for compounds 8 and 9; read-out: HSD1 inhibition at 1 µM
Listing of entries alongside the reported inhibition at 1 µM.
Dear colleague, please return just the value in %, with no unit written.

Reference set (3 entries):
>>> df
                                compound  experimental_endpoint  quantitative_readout
0               O=c1oc2ccccc2cc1-n1ccnc1     inhibition at 1 µM                     1
1  COc1ccc2oc(=O)c(-c3ccc(O)c(F)c3)cc2c1     inhibition at 1 µM                    39
2  COc1ccc2cc(-c3ccc(O)c(F)c3)c(=O)oc2c1     inhibition at 1 µM                    23

Now for the compound whose inhibition at 1 µM we want.
Task item: Quick check: inhibition at 1 µM of O=c1oc2ccccc2cc1-c1cccc(O)c1 [Compound 3, 3–(3-hydroxyphenyl)-2H-chromen-2-one] ?
Reply: 47

* * *

inhibition at 10 µM reference
# Study target: MAO-B (Homo sapiens)
# Construct: purchased Sigma-Aldrich (St. Louis, MO)
# Sequence (P27338 whole entry): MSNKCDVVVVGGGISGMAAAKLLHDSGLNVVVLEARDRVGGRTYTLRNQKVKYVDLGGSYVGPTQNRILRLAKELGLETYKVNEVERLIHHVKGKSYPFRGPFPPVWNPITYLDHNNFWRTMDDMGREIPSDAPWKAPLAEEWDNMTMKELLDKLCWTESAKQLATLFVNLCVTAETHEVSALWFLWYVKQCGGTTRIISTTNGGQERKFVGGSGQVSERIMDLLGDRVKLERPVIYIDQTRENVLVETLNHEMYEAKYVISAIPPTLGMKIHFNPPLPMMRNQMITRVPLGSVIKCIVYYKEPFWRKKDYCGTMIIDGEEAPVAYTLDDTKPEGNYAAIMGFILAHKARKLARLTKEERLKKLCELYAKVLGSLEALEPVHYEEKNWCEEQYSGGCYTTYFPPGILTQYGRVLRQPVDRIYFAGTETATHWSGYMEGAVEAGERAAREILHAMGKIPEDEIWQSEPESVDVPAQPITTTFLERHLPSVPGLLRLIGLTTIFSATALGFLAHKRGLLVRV
# Test details: MAO-B inhibition, continuous spectrophotometric assay
# Type: biochemical
# Condition: 10 µM; single point, read at 2 h; read-out: MAO-B inhibition at 10 µM
The response must be a number in % with no trailing unit.

>>> print(df.to_string())
                                   compound  quantitative_readout
0                  O=c1oc2ccccc2cc1-n1ccnc1                    11
1  O=c1oc2ccccc2cc1-c1cccc(O)c1 [Compound 3, 3–(3-hydroxyphenyl)-2H-chromen-2-one]                    50
2          O=c1oc2ccc(Cl)cc2cc1-c1cccc(O)c1                    64

As a next step, examine the compound that follows.
Task item: Need inhibition at 10 µM of COc1ccc(-c2cc3cccc(O)c3oc2=O)cc1 , thanks.
Reply: 48

* * *

# Study target: recombinant human HSD1 (Homo sapiens, UniProt P14061)
# Construct: made in house; host or cells: Sf9 insect cells
# Test details: HSD1 inhibition, HPLC assay of [3H]-E1 to [3H]-E2 conversion
# Type: biochemical
# Condition: estimated from three measurements at 1 µM; average ± standard error; read-out: HSD1 inhibition ∼ pIC50 (converted)
Reported values of IC50 for individual entries
Value expressed in µM; do not type the unit.

Solved cases below.
>>> print(df.to_string())
                                   compound                              study_target  unit_string  quantitative_readout
0  O=c1oc2ccc(Cl)cc2cc1-c1cccc(O)c1 [Compound 4]  recombinant human HSD1 (Homo sapiens, UniProt P14061)           µM                 0.158
1  O=c1oc2ccccc2cc1-c1cccc(O)c1 [Compound 3, 3–(3-hydroxyphenyl)-2H-chromen-2-one]  recombinant human HSD1 (Homo sapiens, UniProt P14061)           µM                  1.26

Task item: May I ask what IC50 has been recorded for COc1ccc(-c2cc3cccc(O)c3oc2=O)cc1 [Compound 1] ?
Reply: 0.501

Task item: Entry O=c1oc2ccc(O)cc2cc1-c1ccc(O)cc1 [Compound 2] please
Reply: 0.631

Task item: Another compound to check: COc1ccc2oc(=O)c(-c3ccc(O)c(F)c3)cc2c1 [Compound 7]
Reply: 1.58

Task item: Next compound up: COc1ccc2cc(-c3ccc(O)c(F)c3)c(=O)oc2c1 [Compound 6]
Reply: 3.98
